Values were extracted from ChEMBL document CHEMBL1124070.

Listed next: entries and their corresponding pEC50.
# Test system: HEp-2
# Assay Comment: Effective dose required to inhibit colony formation of H.Ep-2 cells
# Assay type: functional
# Condition Set: Homo sapiens, read-out: ED50 (the source's name)
// pEC50: -log10(molar conc.)

Per the records, this compound ( CCOC(=O)CCCCCCCCNC(=O)N1c2c(O)nc(N)nc2NCC1CNc1ccc(C(=O)NC(CCC(=O)O)C(=O)O)cc1 (centres undefined) ) has pEC50 equal to 4.46

Per the records, this compound ( CCOC(=O)CCCCCCCNC(=O)N1c2c(O)nc(N)nc2NCC1CNc1ccc(C(=O)NC(CCC(=O)O)C(=O)O)cc1 (centres undefined) ) has pEC50 equal to 4.62

Per the records, this compound ( CCOC(=O)CCCCCNC(=O)N1c2c(O)nc(N)nc2NCC1CNc1ccc(C(=O)NC(CCC(=O)O)C(=O)O)cc1 (centres undefined) ) has pEC50 equal to 4.89

Per the records, this compound ( CCOC(=O)CCCCCCNC(=O)N1c2c(O)nc(N)nc2NCC1CNc1ccc(C(=O)NC(CCC(=O)O)C(=O)O)cc1 (centres undefined) ) has pEC50 equal to 5.40
